System: Rattus norvegicus
method description: Analgesic activity in Wistar albino rat assessed as reaction time at 12.5 mg/kg, ip measured after 180 mins for 15 secs by hot plate method (reference value: 3.87 +/- 0.38 sec)
Assay type: functional
Please respond with reported Time for every item in the list.
Numbers only; they are read as s.

Data point: CC(=O)N(C1=CC(=O)CCC1)c1ccc(Cl)cc1 ; Time = 8.22

In plain terms, O=C1C=C(Nc2ccc(Cl)cc2)CCC1 has a documented Time of 7.24

The measured Time associated with CC(C)(C)OC(=O)N(C1=CC(=O)CCC1)c1ccc(Cl)cc1 reads 7.95

The compound listed as Cc1ccc(-c2cc(C(F)(F)F)nn2-c2ccc(S(N)(=O)=O)cc2)cc1 has a reported Time of 9.92

* * *

System: Rattus norvegicus
method description: Analgesic activity in Wistar albino rat assessed as reaction time at 12.5 mg/kg, ip measured after 60 mins for 15 secs by hot plate method (reference value: 4.67 +/- 0.52 sec)
Type: functional
Would you mind telling me the reported Time of each entry?

Form field Time, entry CC(=O)N(C1=CC(=O)CCC1)c1ccc(Cl)cc1 : 6.85 s

CC(C)(C)OC(=O)N(C1=CC(=O)CCC1)c1ccc(Cl)cc1 yielded Time of 6.29 s

Kindly note the recorded Time for Cc1ccc(-c2cc(C(F)(F)F)nn2-c2ccc(S(N)(=O)=O)cc2)cc1 , which is 8.93 s

# molecule O=C1C=C(Nc2ccc(Cl)cc2)CCC1 ; its Time = 7.09 s

* * *

Test system: Rattus norvegicus
method description: Antiinflammatory activity in Wistar albino rat assessed as reduction in carrageenan-induced paw volume at 12.5 mg/kg, ip measured after 2 hrs by plethysmometric method (reference value: 1.58 +/- 0.21 ml)
Type: functional
parameter measured: Activity (mL)
Just the number please, in mL, no unit attached.

Looking up CC(=O)N(C1=CC(=O)CCC1)c1ccc(Cl)cc1 , I found its Activity recorded as 1.26

Reported Activity for O=C1C=C(Nc2ccc(Cl)cc2)CCC1 was 1.22

Kindly note the recorded Activity for CC(C)(C)OC(=O)N(C1=CC(=O)CCC1)c1ccc(Cl)cc1 , which is 1.28

Looking up Cc1ccc(-c2cc(C(F)(F)F)nn2-c2ccc(S(N)(=O)=O)cc2)cc1 , I see its Activity listed as 1.38

* * *

Can you tell me Time for the items I'm about to list?
Tested on: Rattus norvegicus
method description: Analgesic activity in Wistar albino rat assessed as reaction time at 25 mg/kg, ip measured after 180 mins for 15 secs by hot plate method (reference value: 3.87 +/- 0.38 sec)
Type: functional
All answers are understood in s, so give the number only.

Recorded result, Cc1ccc(-c2cc(C(F)(F)F)nn2-c2ccc(S(N)(=O)=O)cc2)cc1 , Time: 10.87

The compound CC(=O)N(C1=CC(=O)CCC1)c1ccc(Cl)cc1 showed Time equal to 11.88

Value of Time reported for the compound O=C1C=C(Nc2ccc(Cl)cc2)CCC1 is 8.2

The compound listed as CC(C)(C)OC(=O)N(C1=CC(=O)CCC1)c1ccc(Cl)cc1 shows Time equal to 7.85

* * *

Provide the recorded inhibition for the entries that follow.
target: Prostaglandin G/H synthase 2 (Homo sapiens)
method description: Inhibition of recombinant human COX2 assessed as reduction in PGF2alpha at 10 uM incubated for 2 mins using arachidonic acid as substrate by ELISA relative to control
Respond numerically; units are % and should not be typed.

# CC1(C)CC(=O)C=C(Nc2ccc(Cl)cc2)C1 with Prostaglandin G/H synthase 2 (Homo sapiens): inhibition is 42.6

# CC(C)(C)OC(=O)N(C1=CC(=O)CCC1)c1ccc(Cl)cc1 with Prostaglandin G/H synthase 2 (Homo sapiens): inhibition is 73.5

The measured inhibition that O=C1C=C(Nc2ccc(F)cc2)CC1 showed for Prostaglandin G/H synthase 2 (Homo sapiens) is 22.2

Field inhibition (system: Prostaglandin G/H synthase 2 (Homo sapiens)) for entry O=C1C=C(NCc2ccco2)CCC1 = 48.4

Case CC1(C)CC(=O)C=C(Nc2ccc(F)cc2)C1 , Prostaglandin G/H synthase 2 (Homo sapiens), inhibition recorded as 44.5

Sample Cc1ccc(NC2=CC(=O)CCC2)cc1 , system: Prostaglandin G/H synthase 2 (Homo sapiens). Its inhibition is 34.2

With Prostaglandin G/H synthase 2 (Homo sapiens) as the test system, O=C1C=C(Nc2ccc([N+](=O)[O-])cc2)CCC1 showed inhibition of 24.2

Prostaglandin G/H synthase 2 (Homo sapiens) data for O=C1C=C(N2CCCC2)CCC1 ; its inhibition: 45.6

Tested on Prostaglandin G/H synthase 2 (Homo sapiens): O=C1C=C(Nc2cc(Cl)ccc2F)CCC1 . Observed inhibition: 47.4

// assay Prostaglandin G/H synthase 2 (Homo sapiens), entry O=C1C=C(Nc2ccc(F)cc2)CCC1 , inhibition value = 55.6

The molecule O=C1C=C(NCc2ccccc2)CCC1 , tested on Prostaglandin G/H synthase 2 (Homo sapiens), showed inhibition of 40.5

Note to self: inhibition of O=C1C=C(Nc2ccc(Cl)cc2)CC1 with Prostaglandin G/H synthase 2 (Homo sapiens) was 33.5

Bench note, Prostaglandin G/H synthase 2 (Homo sapiens): entry CC(=O)c1ccc(NC2=CC(=O)CCC2)cc1 , its inhibition = 41.9

Prostaglandin G/H synthase 2 (Homo sapiens) assay, molecule O=C1C=C(NCc2ccco2)CC1 , recorded inhibition = 41.4

Readout inhibition for O=C1C=C(Nc2ccc(Cl)cc2)CCC1 , test system Prostaglandin G/H synthase 2 (Homo sapiens), was 88.6

Noted inhibition for O=C1C=C(Nc2ccccc2)CCC1 , tested on Prostaglandin G/H synthase 2 (Homo sapiens): 41.9

The observed inhibition for O=C1C=C(NN2CCCCC2)CCC1 when tested with Prostaglandin G/H synthase 2 (Homo sapiens) stands at 43.2

Entry COc1ccc(NC2=CC(=O)CCC2)cc1 : inhibition on Prostaglandin G/H synthase 2 (Homo sapiens) = 36.6

Field inhibition (Prostaglandin G/H synthase 2 (Homo sapiens)), entry CC(=O)N(C1=CC(=O)CCC1)c1ccc(Cl)cc1 : 96.9

Summary line: CC1(C)CC(=O)C=C(NCc2ccco2)C1 , Prostaglandin G/H synthase 2 (Homo sapiens), reported inhibition = 43.9

GET /values?item= CSc1ccc(NC2=CC(=O)CCC2)cc1 &system= Prostaglandin G/H synthase 2 (Homo sapiens) returns inhibition: 27.8

Tested system Prostaglandin G/H synthase 2 (Homo sapiens); inhibition recorded for N#Cc1ccc(NC2=CC(=O)CCC2)cc1 was 47.1

Recorded inhibition for O=C1C=C(Nc2nc3ccccc3s2)CCC1 on Prostaglandin G/H synthase 2 (Homo sapiens) was 34

* * *

method description: Antioxidant activity assessed as DPPH radical scavenging activity at 10 uM/ml incubated for 20 mins by spectrophotometric method relative to control
Format: functional
parameter measured: Activity (%)
Your answer should be a plain number; it is taken to be in %.

The recorded Activity for CC(C)(C)OC(=O)N(C1=CC(=O)CCC1)c1ccc(Cl)cc1 is 23.1

The molecule identified as O=C1C=C(Nc2ccc(Cl)cc2)CCC1 registered its Activity at 12.7

The molecule identified as O=C1O[C@H]([C@@H](O)CO)C(O)=C1O registered its Activity at 27.1

Data point: CC(=O)N(C1=CC(=O)CCC1)c1ccc(Cl)cc1 ; Activity = 6.18

* * *

Tested on: Rattus norvegicus
method description: Antiinflammatory activity in Wistar albino rat assessed as reduction in carrageenan-induced paw edema at 25 mg/kg, ip measured after 2 hrs by plethysmometric method (reference value: 1.58 +/- 0.21 ml)
Assay type: functional
For each of the compounds below, state its Activity.
Please state the figure in mL; there is no need to write the unit.

Documented Activity of CC(=O)N(C1=CC(=O)CCC1)c1ccc(Cl)cc1 : 1.2

# Activity of CC(C)(C)OC(=O)N(C1=CC(=O)CCC1)c1ccc(Cl)cc1 = 1.24

# Activity (compound: Cc1ccc(-c2cc(C(F)(F)F)nn2-c2ccc(S(N)(=O)=O)cc2)cc1 [CELECOXIB] ) is 1.23

Reported Activity of O=C1C=C(Nc2ccc(Cl)cc2)CCC1 : 1.24

* * *

Test system: Rattus norvegicus
method description: Analgesic activity in Wistar albino rat assessed as reaction time at 12.5 mg/kg, ip measured after 120 mins for 15 secs by hot plate method (reference value: 4.32 +/- 0.52 sec)
Format: functional
parameter measured: Time (s)
Give just the numeric value; s need not be written.

Entry O=C1C=C(Nc2ccc(Cl)cc2)CCC1 ; Time = 7.16

response.value for Cc1ccc(-c2cc(C(F)(F)F)nn2-c2ccc(S(N)(=O)=O)cc2)cc1 (field: Time) = 10.98

Time in this record for CC(=O)N(C1=CC(=O)CCC1)c1ccc(Cl)cc1 : 10.15

Notebook: CC(C)(C)OC(=O)N(C1=CC(=O)CCC1)c1ccc(Cl)cc1 , Time read as 7.99

* * *

Exercise: state measured Time for each of the molecules provided.
Test system: Rattus norvegicus
method description: Analgesic activity in Wistar albino rat assessed as reaction time at 25 mg/kg, ip measured after 60 mins for 15 secs by hot plate method (reference value: 4.67 +/- 0.52 sec)
Type: functional

Reported Rattus norvegicus Time for item Cc1ccc(-c2cc(C(F)(F)F)nn2-c2ccc(S(N)(=O)=O)cc2)cc1 was 8.93 s

Entry CC(C)(C)OC(=O)N(C1=CC(=O)CCC1)c1ccc(Cl)cc1 ; assay system Rattus norvegicus; Time recorded at 6.87 s

Item O=C1C=C(Nc2ccc(Cl)cc2)CCC1 was tested on Rattus norvegicus; the reported Time is 7.72 s

Form: item CC(=O)N(C1=CC(=O)CCC1)c1ccc(Cl)cc1 ; test system Rattus norvegicus; Time: 7.27 s
